Origin of the recorded values: ChEMBL document CHEMBL2150905

# METHOD_SUMMARY: Oral bioavailability in Han Wistar rat at 10 mg/kg
# Assay type: ADME, organism-based
# TEST_CONTEXT: in vivo
Provide the reported bioavailability of each item.
State just the number; it will be interpreted in %.

-- ask Quick one: bioavailability for CC(C)Oc1cc(-n2cnc3ccc(N[C@@H](C)c4ccc(F)cn4)nc32)n[nH]1 ?
-- reply 6.7

-- ask Fill blank: measured bioavailability of the compound CC(C)Oc1cc(-n2cnc3cnc(N[C@@H](C)c4ncc(F)cn4)nc32)n[nH]1 is ____.
-- reply 29

-- ask Entry under review: COc1cc(Nc2nc3c(cc2F)ncn3[C@@H](CO)c2ccc(F)cn2)n[nH]1 . Reported bioavailability?
-- reply 41

-- ask Item C[C@H](Nc1ccc2ncn(-c3cc(C4CC4)[nH]n3)c2n1)c1ncc(F)cn1 has what recorded bioavailability?
-- reply 33

-- ask # get_value(readout='bioavailability', item= CC(C)Oc1cc(-n2cnc3ccc(N[C@@H](CO)c4ccc(F)cn4)nc32)n[nH]1 )
-- reply 29

-- ask What measured bioavailability goes with Cc1cc(-n2cnc3ccc(N[C@@H](C)c4ncc(F)cn4)nc32)n[nH]1 ?
-- reply 92

-- ask Would you mind telling me what bioavailability value was observed for CC(C)Oc1cc(Nc2nc3c(cc2F)ncn3[C@@H](CO)c2ccc(F)cn2)n[nH]1 ?
-- reply 54

###

# TARGET_DESC: Vascular endothelial growth factor receptor 3 (Homo sapiens)
# Sequence (P35916 whole entry): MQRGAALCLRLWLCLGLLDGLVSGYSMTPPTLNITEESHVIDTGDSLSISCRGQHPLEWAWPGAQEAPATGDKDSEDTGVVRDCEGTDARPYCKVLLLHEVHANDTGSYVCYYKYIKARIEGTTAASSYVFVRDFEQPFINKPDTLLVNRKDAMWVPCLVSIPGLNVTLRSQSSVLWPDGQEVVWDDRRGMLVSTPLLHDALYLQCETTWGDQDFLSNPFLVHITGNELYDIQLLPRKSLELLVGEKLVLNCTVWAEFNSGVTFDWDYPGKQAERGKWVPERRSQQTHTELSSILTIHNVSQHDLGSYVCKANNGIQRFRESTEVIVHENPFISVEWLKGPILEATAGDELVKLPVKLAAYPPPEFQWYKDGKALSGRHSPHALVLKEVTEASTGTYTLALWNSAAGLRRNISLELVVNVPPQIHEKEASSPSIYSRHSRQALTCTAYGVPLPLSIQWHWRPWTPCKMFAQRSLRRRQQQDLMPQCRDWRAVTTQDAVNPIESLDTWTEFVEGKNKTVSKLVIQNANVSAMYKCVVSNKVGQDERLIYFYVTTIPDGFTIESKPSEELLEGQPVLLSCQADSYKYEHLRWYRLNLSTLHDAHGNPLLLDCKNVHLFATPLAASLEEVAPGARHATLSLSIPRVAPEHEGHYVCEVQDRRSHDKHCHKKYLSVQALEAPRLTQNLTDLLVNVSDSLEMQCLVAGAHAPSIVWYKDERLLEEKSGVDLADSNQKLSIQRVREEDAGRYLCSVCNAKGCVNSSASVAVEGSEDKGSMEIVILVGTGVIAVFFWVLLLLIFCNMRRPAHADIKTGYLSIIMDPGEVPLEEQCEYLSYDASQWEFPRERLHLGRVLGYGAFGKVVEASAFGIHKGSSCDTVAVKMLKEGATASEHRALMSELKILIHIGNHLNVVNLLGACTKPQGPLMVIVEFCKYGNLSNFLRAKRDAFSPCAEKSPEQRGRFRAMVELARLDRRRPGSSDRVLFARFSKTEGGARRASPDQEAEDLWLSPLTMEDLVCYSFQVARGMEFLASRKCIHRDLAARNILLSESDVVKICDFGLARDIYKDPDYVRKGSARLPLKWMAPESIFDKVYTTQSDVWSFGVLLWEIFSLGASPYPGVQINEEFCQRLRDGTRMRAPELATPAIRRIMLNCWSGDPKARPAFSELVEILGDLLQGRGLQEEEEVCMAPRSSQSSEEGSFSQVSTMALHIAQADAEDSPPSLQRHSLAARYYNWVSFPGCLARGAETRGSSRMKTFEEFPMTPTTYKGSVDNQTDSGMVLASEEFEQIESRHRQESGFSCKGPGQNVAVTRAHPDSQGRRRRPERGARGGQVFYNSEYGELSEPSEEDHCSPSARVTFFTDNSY
ENDPOINT_NAME: IC50 (nM)
Provide the reading as a plain figure in nM.

-- ask Which measured IC50 value corresponds to CC(C)Oc1cc(-n2cnc3ccc(N[C@@H](C)c4ccc(F)cn4)nc32)n[nH]1 ?
-- reply 64

###

# METHOD_SUMMARY: in vitro
# TEST_CONTEXT: human, plasma
# Description: Fraction unbound in human plasma
ENDPOINT_NAME: fraction unbound
Number, no unit, nothing else.

-- ask # input molecule: CC(C)Oc1cc(-n2cnc3ccc(N[C@@H](C)c4ccc(F)cn4)nc32)n[nH]1 ; wanted: its fraction unbound
-- reply 0.06

-- ask Query: fraction unbound; subject: CC(C)Oc1cc(-n2cnc3cnc(N[C@@H](C)c4ncc(F)cn4)nc32)n[nH]1
-- reply 0.31

-- ask // lookup fraction unbound for CC(C)Oc1cc(Nc2nc3c(cc2F)ncn3[C@@H](CO)c2ccc(F)cn2)n[nH]1
-- reply 0.058

-- ask Which fraction unbound is listed for C[C@H](Nc1ccc2ncn(-c3cc(C4CC4)[nH]n3)c2n1)c1ncc(F)cn1 ?
-- reply 0.16

-- ask For the molecule shown here, CC(C)Oc1cc(-n2cnc3ccc(N[C@@H](CO)c4ccc(F)cn4)nc32)n[nH]1 , give the reported fraction unbound.
-- reply 0.081

-- ask fraction unbound for Cc1cc(-n2cnc3ccc(N[C@@H](C)c4ncc(F)cn4)nc32)n[nH]1 ?
-- reply 0.39

###

# TARGET_DESC: Phosphorylase b kinase gamma catalytic chain, liver/testis isoform (Homo sapiens)
# Sequence (P15735 whole entry, canonical isoform): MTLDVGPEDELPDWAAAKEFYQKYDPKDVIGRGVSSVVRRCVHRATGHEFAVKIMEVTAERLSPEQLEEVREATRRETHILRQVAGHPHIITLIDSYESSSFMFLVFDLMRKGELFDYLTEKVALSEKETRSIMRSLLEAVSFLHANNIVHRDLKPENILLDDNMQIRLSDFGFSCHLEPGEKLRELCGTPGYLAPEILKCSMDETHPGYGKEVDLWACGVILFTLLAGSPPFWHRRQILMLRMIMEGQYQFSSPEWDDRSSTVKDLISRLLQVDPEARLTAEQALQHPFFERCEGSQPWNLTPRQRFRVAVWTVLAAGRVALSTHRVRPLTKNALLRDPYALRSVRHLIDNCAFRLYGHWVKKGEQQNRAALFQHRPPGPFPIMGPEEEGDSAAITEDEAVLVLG
# METHOD_SUMMARY: Inhibition of PhKg2
ENDPOINT_NAME: IC50

-- ask Hi! What's the reported IC50 for CC(C)Oc1cc(-n2cnc3ccc(N[C@@H](C)c4ccc(F)cn4)nc32)n[nH]1 on Phosphorylase b kinase gamma catalytic chain, liver/testis isoform (Homo sapiens)?
-- reply 6.1 nM

###

pIC50: −log10 of the molar value.
ENDPOINT_NAME: pIC50

-- ask Lab request: please report pIC50 under test system Proto-oncogene tyrosine-protein kinase receptor Ret (Homo sapiens) for CC(C)Oc1cc(-n2cnc3ccc(N[C@@H](C)c4ccc(F)cn4)nc32)n[nH]1
-- reply > 7.00

###

For each record, write down the corresponding IC50.

-- ask Give IC50 (Voltage-gated inwardly rectifying potassium channel KCNH2 (Homo sapiens)) of the following compound: COc1cc(Nc2nc3c(cc2F)ncn3[C@@H](CO)c2ccc(F)cn2)n[nH]1
-- reply > 32 µM

-- ask I'm curious: which IC50 was measured for CC(C)Oc1cc(-n2cnc3ccc(N[C@@H](C)c4ccc(F)cn4)nc32)n[nH]1 tested on Voltage-gated inwardly rectifying potassium channel KCNH2 (Homo sapiens)?
-- reply > 32 µM

-- ask Write down the reported IC50 of CC(C)Oc1cc(-n2cnc3ccc(N[C@@H](CO)c4ccc(F)cn4)nc32)n[nH]1 , test system: Voltage-gated inwardly rectifying potassium channel KCNH2 (Homo sapiens).
Sequence (Q12809 whole entry): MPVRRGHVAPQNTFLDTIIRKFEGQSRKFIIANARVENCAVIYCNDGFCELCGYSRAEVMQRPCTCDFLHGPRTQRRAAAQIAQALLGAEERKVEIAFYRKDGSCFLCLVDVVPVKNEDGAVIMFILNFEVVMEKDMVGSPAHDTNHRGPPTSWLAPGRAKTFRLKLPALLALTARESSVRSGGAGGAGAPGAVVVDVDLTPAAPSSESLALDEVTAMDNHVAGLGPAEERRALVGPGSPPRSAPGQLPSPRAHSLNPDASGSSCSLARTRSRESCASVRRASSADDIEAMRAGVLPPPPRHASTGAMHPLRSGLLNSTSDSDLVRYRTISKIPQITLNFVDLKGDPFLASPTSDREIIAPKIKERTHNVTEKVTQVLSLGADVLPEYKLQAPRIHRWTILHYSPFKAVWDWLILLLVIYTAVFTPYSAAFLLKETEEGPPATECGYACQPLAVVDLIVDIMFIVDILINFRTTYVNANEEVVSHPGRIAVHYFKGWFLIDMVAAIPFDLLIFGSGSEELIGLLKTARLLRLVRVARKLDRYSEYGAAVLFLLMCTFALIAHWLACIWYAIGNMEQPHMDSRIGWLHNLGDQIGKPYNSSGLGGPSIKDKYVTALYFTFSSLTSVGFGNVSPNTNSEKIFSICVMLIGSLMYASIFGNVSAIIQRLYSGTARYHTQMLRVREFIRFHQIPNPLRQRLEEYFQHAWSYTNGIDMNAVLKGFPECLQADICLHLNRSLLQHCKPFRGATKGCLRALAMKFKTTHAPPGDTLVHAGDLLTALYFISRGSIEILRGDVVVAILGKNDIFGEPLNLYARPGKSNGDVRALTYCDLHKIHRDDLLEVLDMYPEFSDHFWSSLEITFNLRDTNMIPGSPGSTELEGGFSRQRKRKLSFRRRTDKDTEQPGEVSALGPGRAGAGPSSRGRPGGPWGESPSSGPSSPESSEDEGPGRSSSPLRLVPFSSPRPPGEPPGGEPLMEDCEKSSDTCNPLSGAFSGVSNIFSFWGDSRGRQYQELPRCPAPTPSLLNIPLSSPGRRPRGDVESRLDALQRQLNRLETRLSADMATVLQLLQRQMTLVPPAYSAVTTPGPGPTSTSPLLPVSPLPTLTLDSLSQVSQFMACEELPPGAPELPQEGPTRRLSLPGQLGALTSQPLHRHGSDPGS
-- reply 52 µM

-- ask What measured IC50 is associated with Cc1cc(-n2cnc3ccc(N[C@@H](C)c4ncc(F)cn4)nc32)n[nH]1 on Voltage-gated inwardly rectifying potassium channel KCNH2 (Homo sapiens)?
-- reply > 32 µM

-- ask # value lookup — system Voltage-gated inwardly rectifying potassium channel KCNH2 (Homo sapiens), readout IC50, item CC(C)Oc1cc(-n2cnc3cnc(N[C@@H](C)c4ncc(F)cn4)nc32)n[nH]1
-- reply > 32 µM

###

Task for the reader: assign each of the following compounds its reported half-life.
# METHOD_SUMMARY: Half life in Han Wistar rat at 10 mg/kg, po and 3 mg/kg, iv
# Assay type: ADME, organism-based
# TEST_CONTEXT: in vivo
Use min as the unit, but write only the number.

-- ask Requested read-out: half-life. Entry: CC(C)Oc1cc(Nc2nc3c(cc2F)ncn3[C@@H](CO)c2ccc(F)cn2)n[nH]1
-- reply 72

-- ask I have this compound here, COc1cc(Nc2nc3c(cc2F)ncn3[C@@H](CO)c2ccc(F)cn2)n[nH]1 , and I need its recorded half-life.
-- reply 192

-- ask Look up half-life for this compound: CC(C)Oc1cc(-n2cnc3cnc(N[C@@H](C)c4ncc(F)cn4)nc32)n[nH]1
-- reply 228

-- ask Given CC(C)Oc1cc(-n2cnc3ccc(N[C@@H](CO)c4ccc(F)cn4)nc32)n[nH]1 , state its recorded half-life.
-- reply 138

-- ask Report half-life for C[C@H](Nc1ccc2ncn(-c3cc(C4CC4)[nH]n3)c2n1)c1ncc(F)cn1 please.
-- reply 72

-- ask Fill blank: measured half-life of the compound CC(C)Oc1cc(-n2cnc3ccc(N[C@@H](C)c4ccc(F)cn4)nc32)n[nH]1 is ____.
-- reply 58.2

-- ask Record request: half-life value, item Cc1cc(-n2cnc3ccc(N[C@@H](C)c4ncc(F)cn4)nc32)n[nH]1
-- reply 49.2

###

# TARGET_DESC: Tyrosine-protein kinase BTK (Homo sapiens, UniProt Q06187)
# Sequence (Q06187 whole entry): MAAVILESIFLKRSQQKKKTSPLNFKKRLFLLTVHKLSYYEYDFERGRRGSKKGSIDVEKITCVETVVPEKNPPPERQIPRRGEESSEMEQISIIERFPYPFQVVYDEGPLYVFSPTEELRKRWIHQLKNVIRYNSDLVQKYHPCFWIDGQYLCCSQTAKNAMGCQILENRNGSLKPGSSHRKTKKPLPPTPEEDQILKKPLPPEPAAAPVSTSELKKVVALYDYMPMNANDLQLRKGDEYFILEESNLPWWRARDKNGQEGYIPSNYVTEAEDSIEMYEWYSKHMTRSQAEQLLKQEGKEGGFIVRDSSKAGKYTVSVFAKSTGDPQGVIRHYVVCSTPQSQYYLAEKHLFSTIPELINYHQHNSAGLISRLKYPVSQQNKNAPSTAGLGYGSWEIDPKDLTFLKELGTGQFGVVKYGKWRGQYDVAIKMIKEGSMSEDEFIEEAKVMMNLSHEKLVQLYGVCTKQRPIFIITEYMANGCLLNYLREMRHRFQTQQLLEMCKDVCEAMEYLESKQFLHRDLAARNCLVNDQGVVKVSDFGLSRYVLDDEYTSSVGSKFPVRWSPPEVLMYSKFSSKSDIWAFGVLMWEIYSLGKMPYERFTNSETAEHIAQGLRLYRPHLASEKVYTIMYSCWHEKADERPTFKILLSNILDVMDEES
ENDPOINT_NAME: pIC50
# pIC50 is unitless: minus log10 of the molar concentration; print number only

-- ask GET /values?readout=pIC50&item= CC(C)Oc1cc(-n2cnc3ccc(N[C@@H](C)c4ccc(F)cn4)nc32)n[nH]1
-- reply 8.46

###

# METHOD_SUMMARY: physchem
# TEST_CONTEXT: buffer
# Description: Aqueous solubility of the compound
// label = Satisfied if solubility is not less than 200 µM, otherwise Not satisfied

-- ask Hello, I need to know if COc1cc(Nc2nc3c(cc2F)ncn3[C@@H](CO)c2ccc(F)cn2)n[nH]1 has measured solubility not below 200 µM. Thanks!
-- reply Not satisfied

-- ask For this compound, is measured solubility 200 µM or higher? CC(C)Oc1cc(Nc2nc3c(cc2F)ncn3[C@@H](CO)c2ccc(F)cn2)n[nH]1
-- reply Satisfied

-- ask Tell me whether solubility is at least 200 µM here: CC(C)Oc1cc(-n2cnc3cnc(N[C@@H](C)c4ncc(F)cn4)nc32)n[nH]1
-- reply Satisfied

-- ask Hi team, for C[C@H](Nc1ccc2ncn(-c3cc(C4CC4)[nH]n3)c2n1)c1ncc(F)cn1 , is the recorded solubility at or above 200 µM?
-- reply Satisfied

-- ask Does solubility meet or surpass 200 µM for CC(C)Oc1cc(-n2cnc3ccc(N[C@@H](CO)c4ccc(F)cn4)nc32)n[nH]1 ?
-- reply Satisfied

-- ask Has Cc1cc(-n2cnc3ccc(N[C@@H](C)c4ncc(F)cn4)nc32)n[nH]1 a recorded solubility greater than or equal to 200 µM?
-- reply Satisfied

###

# TARGET_DESC: Mitogen-activated protein kinase kinase kinase 9 (Homo sapiens, UniProt P80192)
# METHOD_SUMMARY: Inhibition of MLK1
ENDPOINT_NAME: pIC50
// field semantics: pIC50 = negative decimal log of concentration (mol/L)

-- ask Any idea what its pIC50 is? The compound is CC(C)Oc1cc(-n2cnc3ccc(N[C@@H](C)c4ccc(F)cn4)nc32)n[nH]1
-- reply 7.35

###

# TARGET_DESC: Tyrosine-protein kinase JAK2 (Homo sapiens)
# Sequence (O60674 whole entry): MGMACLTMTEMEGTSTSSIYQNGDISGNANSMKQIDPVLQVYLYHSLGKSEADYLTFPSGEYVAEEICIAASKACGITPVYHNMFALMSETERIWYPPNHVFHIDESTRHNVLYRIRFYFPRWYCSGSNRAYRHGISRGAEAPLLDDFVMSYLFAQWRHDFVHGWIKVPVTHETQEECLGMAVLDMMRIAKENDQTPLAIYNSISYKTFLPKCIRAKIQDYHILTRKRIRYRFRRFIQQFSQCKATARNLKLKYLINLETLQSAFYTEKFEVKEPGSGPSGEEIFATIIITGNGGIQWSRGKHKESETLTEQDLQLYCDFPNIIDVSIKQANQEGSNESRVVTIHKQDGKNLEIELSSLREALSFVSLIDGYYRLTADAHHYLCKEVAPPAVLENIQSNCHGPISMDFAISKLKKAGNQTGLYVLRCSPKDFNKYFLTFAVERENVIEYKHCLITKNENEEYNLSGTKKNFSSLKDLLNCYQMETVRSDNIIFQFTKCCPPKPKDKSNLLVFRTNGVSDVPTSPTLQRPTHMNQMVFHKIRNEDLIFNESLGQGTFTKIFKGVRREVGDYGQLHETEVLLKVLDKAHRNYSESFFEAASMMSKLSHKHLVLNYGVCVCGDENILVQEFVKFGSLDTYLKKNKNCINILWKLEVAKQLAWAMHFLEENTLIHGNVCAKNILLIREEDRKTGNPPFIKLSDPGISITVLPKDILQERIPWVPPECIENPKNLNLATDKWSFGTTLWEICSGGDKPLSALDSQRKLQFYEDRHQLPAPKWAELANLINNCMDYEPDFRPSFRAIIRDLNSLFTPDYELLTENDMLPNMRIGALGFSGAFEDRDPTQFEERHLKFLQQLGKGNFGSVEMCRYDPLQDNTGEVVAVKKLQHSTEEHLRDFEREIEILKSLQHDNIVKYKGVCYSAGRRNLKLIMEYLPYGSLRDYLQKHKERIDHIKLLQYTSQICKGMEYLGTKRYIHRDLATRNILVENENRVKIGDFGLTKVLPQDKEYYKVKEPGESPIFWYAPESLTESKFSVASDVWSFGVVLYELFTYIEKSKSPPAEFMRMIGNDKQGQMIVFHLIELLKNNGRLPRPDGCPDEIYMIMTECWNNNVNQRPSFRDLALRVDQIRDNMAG
# METHOD_SUMMARY: Inhibition of JAK2
ENDPOINT_NAME: IC50 (nM)
Give your result in nM as a bare value.

-- ask Which value of IC50 has been reported for CC(C)Oc1cc(-n2cnc3ccc(N[C@@H](C)c4ccc(F)cn4)nc32)n[nH]1 in the records?
-- reply 68.3

###

# METHOD_SUMMARY: Clearance in beagle dog at 10 mg/kg, po and 2 mg/kg, iv
# Assay type: ADME, organism-based, Canis lupus familiaris
# TEST_CONTEXT: in vivo
ENDPOINT_NAME: clearance (mL/min/kg)
Give the quantity in mL/min/kg, number only.

-- ask Any idea what clearance was measured for CC(C)Oc1cc(-n2cnc3ccc(N[C@@H](CO)c4ccc(F)cn4)nc32)n[nH]1 ?
-- reply 15.2
